# MEASURED TARGET: Urotensin-2 receptor (Rattus norvegicus)
# MEASUREMENT PROTOCOL: Modulation of urotensin-2 receptor in Sprague-Dawley rat thoracic aortic ring assessed as urotensin-2 related peptide pEC50 for induction of aortic ring contraction at 14 uM preincubated for 15 mins followed by urotensin-2 related peptide addition (Rvb = 7.89 +/- 0.08 no unit)
pEC50: −log10 of the molar value.
Item-by-item account of pEC50

# MOLECULE SMILES, pEC50
rows = [
    ("NCCCC[C@@H]1N[C@@H](c2ccc(-c3ccccc3)cc2)c2[nH]c(C(=O)O)cc2N(CCc2ccc(O)cc2)C1=O", 8.00),
    ("NCCCC[C@@H]1N[C@H](c2ccc(-c3ccccc3)cc2)c2[nH]c(C(=O)O)cc2N(CCc2ccc(O)cc2)C1=O", 7.72),
]

* * *

# MEASUREMENT PROTOCOL: Modulation of urotensin-2 receptor in Sprague-Dawley rat thoracic aortic ring assessed as urotensin-2 related peptide EC50 for induction of aortic ring contraction at 8 uM preincubated for 15 mins followed by urotensin-2 related peptide addition (Rvb = 13 nM)
pEC50: −log10 of the molar value.

# MOLECULE SMILES, pEC50
rows = [
    ("NCCCC[C@@H]1N=C(c2cccc3ccccc23)c2[nH]c(C(=O)O)cc2N(CCc2ccc(O)cc2)C1=O", 8.28),
]

* * *

# MEASURED TARGET: Urotensin-2 receptor (Rattus norvegicus, UniProt P49684)
# Sequence (P49684 whole entry): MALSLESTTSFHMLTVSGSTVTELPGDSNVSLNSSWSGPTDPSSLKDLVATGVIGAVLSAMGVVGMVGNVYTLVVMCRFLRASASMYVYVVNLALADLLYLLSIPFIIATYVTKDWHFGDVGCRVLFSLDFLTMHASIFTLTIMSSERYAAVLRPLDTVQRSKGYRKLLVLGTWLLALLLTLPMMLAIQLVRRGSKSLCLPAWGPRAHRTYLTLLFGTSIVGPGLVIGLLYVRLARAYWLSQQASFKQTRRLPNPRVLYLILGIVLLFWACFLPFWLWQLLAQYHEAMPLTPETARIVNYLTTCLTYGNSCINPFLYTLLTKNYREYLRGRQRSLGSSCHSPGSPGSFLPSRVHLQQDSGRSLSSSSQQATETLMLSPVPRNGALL
# MEASUREMENT PROTOCOL: Modulation of urotensin-2 receptor in Sprague-Dawley rat thoracic aortic ring assessed as human urotensin-2 EC50 for induction of aortic ring contraction at 10 uM preincubated for 15 mins followed by human urotensin-2 addition (Rvb = 1.9 nM)
ASSAY READOUT: EC50 (nM)

# MOLECULE SMILES, TEST VALUE
records = [
    ("NCCCC[C@@H]1N[C@H](c2ccc3ccccc3c2)c2[nH]c(C(=O)O)cc2N(CCc2ccc(O)cc2)C1=O", 5),
    ("NCCCC[C@@H]1N=C(c2ccc3ccccc3c2)c2[nH]c(C(=O)O)cc2N(CCc2ccc(O)cc2)C1=O", 4),
    ("NCCC[C@@H]1N=C(c2ccc3ccccc3c2)c2[nH]c(C(=O)O)cc2N(CCc2ccc(O)cc2)C1=O", 9.5),
    ("NCCC[C@@H]1N=C(c2ccc(-c3ccccc3)cc2)c2[nH]c(C(=O)O)cc2N(CCc2ccc(O)cc2)C1=O", 12),
]

* * *

# MEASURED TARGET: Urotensin-2 receptor (Rattus norvegicus)
# MEASUREMENT PROTOCOL: Modulation of urotensin-2 receptor in Sprague-Dawley rat thoracic aortic ring assessed as human urotensin-2 EC50 for induction of aortic ring contraction at 4 uM preincubated for 15 mins followed by human urotensin-2 addition (Rvb = 1.9 nM)
ASSAY READOUT: EC50 (nM)

# MOLECULE SMILES, MEASURED TARGET, ENDPOINT UNIT, TEST VALUE
rows = [
    ("NCCCC[C@@H]1N[C@H](c2ccc(-c3ccccc3)cc2)c2[nH]c(C(=O)O)cc2N(CCc2ccc(O)cc2)C1=O", "Urotensin-2 receptor (Rattus norvegicus)", "nM", 3.5),
]

* * *

# MEASURED TARGET: Urotensin-2 receptor (Rattus norvegicus)
# MEASUREMENT PROTOCOL: Modulation of urotensin-2 receptor in Sprague-Dawley rat thoracic aortic ring assessed as human urotensin-2 EC50 for induction of aortic ring contraction at 11 uM preincubated for 15 mins followed by human urotensin-2 addition (Rvb = 1.9 nM)

# MOLECULE SMILES, EC50 (nM)
records = [
    ("NCCC[C@@H]1N[C@H](c2ccc(-c3ccccc3)cc2)c2[nH]c(C(=O)O)cc2N(CCc2ccc(O)cc2)C1=O", 4.3),
]

* * *

# MEASUREMENT PROTOCOL: Modulation of urotensin-2 receptor in Sprague-Dawley rat thoracic aortic ring assessed as urotensin-2 related peptide pEC50 for induction of aortic ring contraction at 15 uM preincubated for 15 mins followed by urotensin-2 related peptide addition (Rvb = 7.89 +/- 0.08 no unit)
ASSAY READOUT: EC50 (nM)

# MOLECULE SMILES, ASSAY READOUT, ENDPOINT UNIT, TEST VALUE
data = [
    ("NCCCC[C@@H]1N=C(c2ccc(-c3ccccc3)cc2)c2[nH]c(C(=O)O)cc2N(CCc2ccc(O)cc2)C1=O", "EC50", "nM", 12),
]

* * *

# MEASUREMENT PROTOCOL: Modulation of urotensin-2 receptor in Sprague-Dawley rat thoracic aortic ring assessed as urotensin-2 related peptide EC50 for induction of aortic ring contraction at 15 uM preincubated for 15 mins followed by urotensin-2 related peptide addition (Rvb = 13 nM)
ASSAY READOUT: EC50 (nM)

# MOLECULE SMILES, ASSAY READOUT, ENDPOINT UNIT, TEST VALUE
rows = [
    ("NCCCC[C@@H]1N=C(c2ccc(-c3ccccc3)cc2)c2[nH]c(C(=O)O)cc2N(CCc2ccc(O)cc2)C1=O", "EC50", "nM", 12),
]

* * *

# MEASURED TARGET: Urotensin-2 receptor (Rattus norvegicus)
# MEASUREMENT PROTOCOL: Modulation of urotensin-2 receptor in Sprague-Dawley rat thoracic aortic ring assessed as urotensin-2 related peptide EC50 for induction of aortic ring contraction at 14 uM preincubated for 15 mins followed by urotensin-2 related peptide addition (Rvb = 13 nM)
ASSAY READOUT: EC50 (nM)

# MOLECULE SMILES, ENDPOINT UNIT, TEST VALUE
measured = [
    ("NCCCC[C@@H]1N[C@@H](c2ccc(-c3ccccc3)cc2)c2[nH]c(C(=O)O)cc2N(CCc2ccc(O)cc2)C1=O", "nM", 10),
    ("NCCCC[C@@H]1N[C@H](c2ccc(-c3ccccc3)cc2)c2[nH]c(C(=O)O)cc2N(CCc2ccc(O)cc2)C1=O", "nM", 19),
]

* * *

# MEASUREMENT PROTOCOL: Modulation of urotensin-2 receptor in Sprague-Dawley rat thoracic aortic ring assessed as human urotensin-2 pEC50 for induction of aortic ring contraction at 8 uM preincubated for 15 mins followed by human urotensin-2 addition (Rvb = 8.71 +/- 0.08 no unit)
pEC50: −log10 of the molar value.

# MOLECULE SMILES, pEC50
measured = [
    ("NCCCC[C@@H]1N=C(c2cccc3ccccc23)c2[nH]c(C(=O)O)cc2N(CCc2ccc(O)cc2)C1=O", 8.11),
]

* * *

# MEASURED TARGET: Urotensin-2 receptor (Rattus norvegicus, UniProt P49684)
# MEASUREMENT PROTOCOL: Modulation of urotensin-2 receptor in Sprague-Dawley rat thoracic aortic ring assessed as urotensin-2 related peptide pEC50 for induction of aortic ring contraction at 10 uM preincubated for 15 mins followed by urotensin-2 related peptide addition (Rvb = 7.89 +/- 0.08 no unit)
Item-by-item account of EC50
ASSAY READOUT: EC50

# MOLECULE SMILES, MEASURED TARGET, ASSAY READOUT, TEST VALUE
rows = [
    ("NCCCC[C@@H]1N[C@H](c2ccc3ccccc3c2)c2[nH]c(C(=O)O)cc2N(CCc2ccc(O)cc2)C1=O", "Urotensin-2 receptor (Rattus norvegicus, UniProt P49684)", "EC50", "8.3 nM"),
    ("NCCC[C@@H]1N[C@H](c2cccc3ccccc23)c2[nH]c(C(=O)O)cc2N(CCc2ccc(O)cc2)C1=O", "Urotensin-2 receptor (Rattus norvegicus, UniProt P49684)", "EC50", "4.6 nM"),
    ("NCCCC[C@@H]1N[C@@H](c2ccc3ccccc3c2)c2[nH]c(C(=O)O)cc2N(CCc2ccc(O)cc2)C1=O", "Urotensin-2 receptor (Rattus norvegicus, UniProt P49684)", "EC50", "8.7 nM"),
    ("NCCC[C@@H]1N=C(c2cccc3ccccc23)c2[nH]c(C(=O)O)cc2N(CCc2ccc(O)cc2)C1=O", "Urotensin-2 receptor (Rattus norvegicus, UniProt P49684)", "EC50", "12 nM"),
    ("NCCC[C@@H]1N=C(c2ccc3ccccc3c2)c2[nH]c(C(=O)O)cc2N(CCc2ccc(O)cc2)C1=O", "Urotensin-2 receptor (Rattus norvegicus, UniProt P49684)", "EC50", "6.8 nM"),
    ("NCCC[C@@H]1N[C@@H](c2cccc3ccccc23)c2[nH]c(C(=O)O)cc2N(CCc2ccc(O)cc2)C1=O", "Urotensin-2 receptor (Rattus norvegicus, UniProt P49684)", "EC50", "3.6 nM"),
    ("NCCCC[C@@H]1N=C(c2ccc3ccccc3c2)c2[nH]c(C(=O)O)cc2N(CCc2ccc(O)cc2)C1=O", "Urotensin-2 receptor (Rattus norvegicus, UniProt P49684)", "EC50", "21 nM"),
    ("NCCC[C@@H]1N=C(c2ccc(-c3ccccc3)cc2)c2[nH]c(C(=O)O)cc2N(CCc2ccc(O)cc2)C1=O", "Urotensin-2 receptor (Rattus norvegicus, UniProt P49684)", "EC50", "23 nM"),
]

Source of measurements: BindingDB's records for doi:10.1021/acs.jmedchem.5b00162
